cathepsin B (Homo sapiens) data, read-out IC50
Give bare numbers, in µM.

The examples below pair each entry with its known result.
COMPOUND	REPORTED METRIC	UNITS SYMBOL	ENDPOINT RESULT
CC(=O)N[C@@H](CC(C)C)C(=O)N[C@@H](CC(C)C)C(=O)N[C@H](C=O)CCCNC(=N)N [leupeptin, reference compound]	IC50	µM	0.03
Cc1c([C@H](C)[C@@H](C)O)cc(O)c(C(=O)O)c1O	IC50	µM	20.4

Query compound follows.
Asked: Any idea what IC50 was measured for Cc1c(O)c(C(=O)O)c(O)c2c1[C@H](C)[C@@H](C)OC2=O [Compound 4, dihydrocitrinone] ?
Given back: 28.5

----------
Target: SHP2 (Homo sapiens)
Sequence (Q06124 1-593): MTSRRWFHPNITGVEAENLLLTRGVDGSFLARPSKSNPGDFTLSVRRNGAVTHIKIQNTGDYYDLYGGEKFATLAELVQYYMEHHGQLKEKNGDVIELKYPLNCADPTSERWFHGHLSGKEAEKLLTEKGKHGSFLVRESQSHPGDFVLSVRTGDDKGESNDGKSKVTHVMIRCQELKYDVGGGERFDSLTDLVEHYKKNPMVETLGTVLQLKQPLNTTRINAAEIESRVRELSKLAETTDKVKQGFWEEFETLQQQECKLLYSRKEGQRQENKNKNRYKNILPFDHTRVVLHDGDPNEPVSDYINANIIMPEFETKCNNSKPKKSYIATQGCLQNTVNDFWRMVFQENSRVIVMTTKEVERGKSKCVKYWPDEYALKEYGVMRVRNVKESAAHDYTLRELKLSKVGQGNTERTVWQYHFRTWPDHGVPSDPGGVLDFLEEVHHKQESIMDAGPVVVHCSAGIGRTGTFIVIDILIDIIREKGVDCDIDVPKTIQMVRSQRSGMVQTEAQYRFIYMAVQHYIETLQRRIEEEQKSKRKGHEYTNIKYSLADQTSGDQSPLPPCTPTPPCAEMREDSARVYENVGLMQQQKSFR
Test: SHP2 activity assay (pNPP substrate)
Settings: human recombinant enzyme, read-out: IC50, inhibitory activity towards SHP2
REPORTED METRIC: pIC50
Numbers only, as −log10 of the molar value.

Solved entries:
COMPOUND	TARGET	REPORTED METRIC	ENDPOINT RESULT
O=C1C[C@@H](O)[C@@H](O)c2cccc(O)c21 [Compound 17, (3R,4S)-(+)-4-hydroxy-6-deoxyscytalone]	SHP2 (Homo sapiens)	pIC50	5.39
Cc1c2c(c3oc4cc(=O)c(C)c5c-4c(c3c1O)O[C@H](C)[C@H]5C)O[C@H](C)[C@H]2C	SHP2 (Homo sapiens)	pIC50	4.23

Asked: Return reported pIC50; argument: C[C@H]1[C@H](C)CC[C@]2(C(=O)O)CC[C@]3(C)C(=CC[C@@H]4[C@@]5(C)CC[C@H](O)C(C)(C)[C@@H]5CC[C@]43C)[C@H]12 [ursolic acid, reference compound]
Given back: 5.55

----------
Task for the reader: assign each of the following compounds its reported pIC50.
target: IMPDH (Homo sapiens); construct: His tag; experiment: IMPDH enzyme assay (OD at 340 nm); settings: recombinant human IMPDH II; read-out: IC50, inhibitory activity towards IMPDH
One number for each entry, as −log10 of the molar value.

COMPOUND	REPORTED METRIC	ENDPOINT RESULT
Cc1c2c(c3oc4cc(=O)c(C)c5c-4c(c3c1O)O[C@H](C)[C@H]5C)O[C@H](C)[C@H]2C	pIC50	4.01

Asked: Consider the compound O=C1C[C@@H](O)[C@@H](O)c2cccc(O)c21 [Compound 17, (3R,4S)-(+)-4-hydroxy-6-deoxyscytalone] and give its measured pIC50.
Given back: 4.39
